Just for reference, PubChem BioAssay AID1996 is where these values come from.

# particulars: buffer; pH 7.4; 200.0 µM
Classify by measured solubility kinetic: fulfilled if it is equal to or exceeds 5 µg/mL, not fulfilled if it is smaller.

As a guide, the following entries are already answered.
{"compound": "O=C(COC(=O)c1ccc(Cl)nc1)NCCc1ccccc1", "qualitative_label": "fulfilled"}
{"compound": "COc1ccc(OCC#CCN2CCNCC2)cc1.O=C(O)C(=O)O", "qualitative_label": "fulfilled"}
{"compound": "C=CCNc1nc(-c2ccc3c(c2)OCCO3)cs1", "qualitative_label": "fulfilled"}
{"compound": "CC(=O)c1ccc(NC(=O)c2cc(C)no2)cc1", "qualitative_label": "fulfilled"}
{"compound": "Cc1cccc(NC(=O)C2Cc3ccccc3O/C2=N\\O)c1 (configuration not stated)", "qualitative_label": "not fulfilled"}
{"compound": "O=C(CN1CCN(C(=O)c2ccco2)CC1)Nc1ccccc1", "qualitative_label": "fulfilled"}
{"compound": "CN(CC(=O)Nc1ccccc1Cl)C(=O)COC(=O)c1ccc(-c2ccc(O)cc2)cc1", "qualitative_label": "not fulfilled"}
{"compound": "CC(C)C(NC(=O)c1cccs1)C(=O)NC1CCCCC1 (configuration not stated)", "qualitative_label": "not fulfilled"}

QUERY: Is reported solubility kinetic greater than or equal to 5 µg/mL here: CCc1c(C(=O)Nc2cc(C(=O)OC)ccc2C)csc1C
RESULT: not fulfilled

QUERY: Same for COc1ccc(Nc2nc(N)c([N+](=O)[O-])c(N3CCOCC3)n2)cc1
RESULT: fulfilled

QUERY: Same for CC1CCCC(C)N1CC(O)COC1CCC(C(C)(C)C)CC1.Cl (configuration not stated)
RESULT: fulfilled

QUERY: Same for O=[N+]([O-])c1cc(F)c(N2CCCC2)cc1Br
RESULT: not fulfilled

====

# particulars: buffer; pH 7.4; 200.0 µM
value_type: solubility kinetic

Worked cases, answers included:
{"structure_smiles": "Cc1ccc(CNC(=O)Nc2ccccc2)n1C", "solubility kinetic": "0.0316 mg/mL"}
{"structure_smiles": "Cc1ccc(-c2cnc3n2CCCCC3)cc1", "solubility kinetic": "> 0.0339 mg/mL"}
{"structure_smiles": "O=C(O)c1ccccc1-c1ccccc1C(=O)NCc1ccccc1F", "solubility kinetic": "0.0384 mg/mL"}

# per-item lookup of solubility kinetic; items listed below
1. CCc1ccc(NC(=O)NCc2ccccn2)cc1
2. Cc1ccc(NS(=O)(=O)c2ccc(C(C)C)cc2)cc1S(=O)(=O)N1CCOCC1
3. CCCCN(C)Cc1c(C)[nH]c2c(ccc3ccccc32)c1=O
4. COc1ccc(-c2nc3ccccc3c(=O)n2CC(C)C)cc1
5. O=C(Nc1ccc(F)cc1)c1ccc(S(=O)(=O)N2CCOCC2)o1

RESULT:
> 0.0383 mg/mL
0.0274 mg/mL
> 0.0463 mg/mL
0.0383 mg/mL
> 0.0532 mg/mL

# per-item lookup of solubility kinetic; items listed below
1. O=C(COc1ccccc1Cl)N1CCCCCCC1
2. COc1ccc(NC(=O)CO/N=C2/CCCc3nonc32)c(OC)c1

RESULT:
1: 0.0314 mg/mL; 2: > 0.052 mg/mL

# per-item lookup of solubility kinetic; items listed below
1. Cc1ccc(SCCCCN2CCOCC2)cc1.Cl
2. O=C(O)c1ccccc1C(=O)N1CCN(c2ncccn2)CC1

RESULT:
["> 0.0453 mg/mL", "> 0.0468 mg/mL"]

====

# particulars: buffer; pH 7.4; 200.0 µM
Exercise: state measured solubility kinetic for each of the compounds provided.

Worked cases, answers included:
{"structure_smiles": "CC(=O)Nc1cccc2c1C(=O)N(c1cccc(OC(C)=O)c1)C2=O", "solubility kinetic": "> 50.7 µg/mL"}
{"structure_smiles": "Cc1ccccc1-c1nc2ccccc2c(=O)n1C", "solubility kinetic": "35.8 µg/mL"}
{"structure_smiles": "COc1ccc(NC(=O)c2ccc3c(c2)OCCO3)cc1OC", "solubility kinetic": "10.3 µg/mL"}
{"structure_smiles": "Nc1nc(NCCOCCO)nc(NC2CCCCC2)c1[N+](=O)[O-]", "solubility kinetic": "> 51.1 µg/mL"}

# per-item lookup of solubility kinetic; items listed below
1. O=C(Nc1ccc(Cl)cc1)N1CCOC12CCCCC2
2. CCCc1nnc(NC(=O)CCC(=O)NC2CC2)s1

RESULT:
> 44.2 µg/mL
> 42.4 µg/mL

====

Exercise: state measured solubility kinetic for each of the compounds provided.
# particulars: buffer; pH 7.4; 200.0 µM
Give bare numbers, in µg/mL.

{"compound": "O=C(O)COc1ccc(/C=N/O)cc1Br", "value_type": "solubility kinetic", "experimental_result": 41}
{"compound": "Cc1ccc2nc(SCC(=O)Nc3nonc3N)[nH]c2c1", "value_type": "solubility kinetic", "experimental_result": 39}

# per-item lookup of solubility kinetic; items listed below
1. O=C(NCCc1ccc(Cl)cc1)C1CCCN1C(=O)Nc1ccccc1 (configuration not stated)
2. CC(=O)c1ccc(NC(=O)COC(=O)CCC2CCCC2)cc1
3. Nc1cc2nc3ccccc3nc2cc1N
4. Cc1onc(-c2c(F)cccc2Cl)c1C(=O)c1ccccc1O
5. S=C(NCc1cccnc1)Nc1cc(Cl)cc(Cl)c1

RESULT:
1: 54.7; 2: 17; 3: 5.1; 4: 2.6; 5: 39.6

====

Exercise: state measured log10 solubility kinetic for each of the compounds provided.
# particulars: buffer; pH 7.4; 200.0 µM
On a log10 scale: recorded solubility kinetic, unit µg/mL.

Worked cases, answers included:
{"compound": "Cc1cc(/C=C2/NC(=O)NC2=O)c(C)n1-c1ccc(C#N)cc1", "log10 solubility kinetic": 0.92}
{"compound": "O=C(COC(=O)COc1ccc(Cl)cc1)NCCCc1ccccc1", "log10 solubility kinetic": 1.42}
{"compound": "COc1cc(N2C(=O)CC3(CCCC3)CC2=O)cc(OC)c1OC", "log10 solubility kinetic": 1.67}
{"compound": "COCC(=O)Nc1nc(-c2ccc(-c3ccccc3)cc2)cs1", "log10 solubility kinetic": 0.64}
{"compound": "CC(=O)Nc1ccc(C(=O)/C=C/c2ccc[nH]2)cc1", "log10 solubility kinetic": 0.46}

# per-item lookup of log10 solubility kinetic; items listed below
1. Cl.FC(F)(F)c1cccc(C2NCc3ccccc3-n3cccc32)c1 (stereo not drawn)
2. COc1ccccc1CNC(=O)C12CC3CC(CC(C3)C1)C2

RESULT:
1. 0.59
2. 0.36

# per-item lookup of log10 solubility kinetic; items listed below
1. O=C(Cc1ccccc1)NCC(=O)Nc1ccccc1Br
2. CN(CC(=O)Nc1ccc(C(N)=O)cc1)S(=O)(=O)c1ccc2c(c1)OCCO2
3. NS(=O)(=O)c1ccc(CCNC(=S)NC(=O)c2ccccc2Br)cc1

RESULT:
[1.71, 0.97, 0.52]

# per-item lookup of log10 solubility kinetic; items listed below
1. O=C1c2ccc([N+](=O)[O-])cc2C(=O)N1c1ccc([N+](=O)[O-])cn1
2. COCCCNc1ccc([N+](=O)[O-])cc1C(=O)Nc1cccc(C)n1
3. CCC(=O)c1cn(CCOc2ccccc2OC)c2ccccc12

RESULT:
1.62
0.46
0.34

====

# particulars: buffer; pH 7.4; 200.0 µM
Classify by measured solubility kinetic: Y if it is equal to or exceeds 10 µg/mL, N if it is smaller.

QUERY: Is reported solubility kinetic greater than or equal to 10 µg/mL here: O=C(Nc1ccccc1)/C(=C\c1ccc(F)cc1)NC(=O)c1ccco1
RESULT: N

QUERY: Same for O=C(CN1C(=O)c2ccccc2C1=O)NC1CCCCCC1
RESULT: Y

QUERY: Same for O=C(Cc1ccccc1)N1CCN=C1SCc1cccc([N+](=O)[O-])c1
RESULT: N

QUERY: Same for Cc1cc(NS(=O)(=O)c2ccc(NC(=O)C3CCCCC3)cc2)no1
RESULT: Y

QUERY: Same for CN(C)c1nc(-c2ccccc2)ns1
RESULT: Y

QUERY: Same for Cc1ccc2c(c1)C(=O)OC1(O)C3C4C=CC(C4)C3C(=O)N21 (stereo unspecified)
RESULT: Y

QUERY: Same for Cc1ccc2nc(-c3ccccc3)c(CC(=O)O)c(C(=O)O)c2c1
RESULT: Y

QUERY: Same for Cn1c(SCc2cccc(Br)c2)nc2ccccc2c1=O
RESULT: N

QUERY: Same for CN1C/C(=C/c2cccs2)C(=O)/C(=C\c2cccs2)C1
RESULT: Y

QUERY: Same for Cc1ccc(C2=NN(CC(=O)NCCN(C)C)C(=O)CC2)cc1
RESULT: Y

QUERY: Same for O=C(NC(=O)N1CCCc2ccccc21)c1ccccc1
RESULT: Y

====

# particulars: buffer; pH 7.4; 200.0 µM
value_type: solubility kinetic (mg/mL)
One number for each entry, in mg/mL.

Worked cases, answers included:
{"molecule": "C=CCNC1=C(Cl)C(=O)N(Cc2ccccc2)C1=O", "solubility kinetic / mg/mL": 0.0058}
{"molecule": "O=C(CCc1ccccc1)NCc1ccc(F)cc1", "solubility kinetic / mg/mL": 0.0341}
{"molecule": "COC(=O)c1c(NC(=O)c2ccccc2)sc(C(N)=O)c1C", "solubility kinetic / mg/mL": 0.0018}

# per-item lookup of solubility kinetic; items listed below
1. O=C(NC(=S)NCc1ccco1)c1ccccc1[N+](=O)[O-]
2. O=C(COC(=O)c1ccc(F)c(S(=O)(=O)N2CCOCC2)c1)c1ccccc1
3. COC(=O)C1=C(N)OC2=C(C(=O)CCC2)C1c1cccnc1 (stereo not given)
4. O=C(CNC(=O)c1ccc(Cl)cc1Cl)OCCOc1ccccc1F
5. CC(NC(=O)COc1cccnc1[N+](=O)[O-])c1ccc(Cl)cc1Cl (stereo not given)

RESULT:
0.0087
0.0063
0.0427
0.0512
0.0441
